Values from PubChem BioAssay

- PROTOCOL DESCRIPTION: inhibitors of TNFa-induced NFkB p65 translocation, primary screen, imaging, HUVEC, MLSMR starter and 10KST1 sets (AID 438);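 further: compound added about 3h40 before a 20 min TNFalpha stimulation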
- EXPERIMENTAL SETUP: HUVEC TNFa-induced p65 nuclear translocation; measured here: nuclei count (cytotoxicity indicator), at 2.08 µM
QUANTITY NAME: cell count
// no unit, no text: just the number

compound="CC(NC(=O)c1cc2c(=O)n(C)c3ccccc3c2n1C)c1ccc2c(c1)OCCO2 (stereo unspecified)" meas_value=798
compound=O=C(Cn1cc2c(n1)CCCC2)NCCc1ccccc1 meas_value=792
compound=CC(C)c1nc2n[nH]c(N)c2c2c1CCCC2 meas_value=576
compound=Nc1nc(-c2ccc(Cl)cc2)nn1C(=O)c1cccnc1 meas_value=293

Can you look up the measured cell count of Cn1c(=O)c2c(nc(Br)n2CCSc2nc3ccccc3o2)n(C)c1=O for me?
608

# input compound: O=C(NC1CCCC1)c1ccc2nc[nH]c2c1 ; wanted: its cell count
427

Would you mind telling me what cell count value was observed for Cc1ccc(CCC(=O)Nc2ccc(S(N)(=O)=O)cc2)o1 ?
543

Endpoint output: cell count of CC1CCN(c2oc(-c3ccccc3F)nc2C#N)CC1 . Value?
578

// cell count lookup, key: CCc1nc(NC2CCCCC2)c(C#N)c2c1COC(C)(C)C2
573

Return reported cell count; argument: O=C(NCCCN1CCCC1=O)c1ccc2c(=O)n(Cc3ccco3)c(=S)[nH]c2c1
653

Which measured cell count value corresponds to CC(=O)c1ccccc1Oc1nc(CN2CCOCC2)nc2scc(-c3cccs3)c12 ?
330

====

- PROTOCOL DESCRIPTION: inhibitors of E-selectin induction by TNFa, primary screen, imaging, HUVEC, immunofluorescence, MLSMR starter and 10KST1 sets (AID 487);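 further: signal is fraction of cell area covered by stained E-selectin grains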
- EXPERIMENTAL SETUP: HUVEC TNFalpha-induced E-selectin immunofluorescence imaging, at 2 µM; stronger effect = higher value
Rule: Fulfilled for inhibition not less than -10%, Not fulfilled for anything less.

molecule=C=CCn1c(SCC(=O)c2ccc(NS(=O)(=O)c3ccccc3)cc2)nnc1-c1cccs1 assigned_category="Not fulfilled"
molecule=COc1ccc(Oc2nc(Oc3ccc(OC)cc3)nc(Oc3ccc(OC)cc3)n2)cc1 assigned_category=Fulfilled
molecule=C=CCn1c(-c2ccc(OC)c(OC)c2)n[nH]c1=S assigned_category=Fulfilled

# check: inhibition of COc1cc(C2c3c(oc4c(C)cc(C)cc4c3=O)C(=O)N2Cc2cccnc2)ccc1O (stereo not given) is greater than or equal to -10%
Fulfilled

Does the molecule CCn1c(SCC(=O)Nc2cc(C)ccc2C)nc2c(c1=O)SC(C)C2 (stereo not given) have recorded inhibition that is -10% or more?
Not fulfilled

Check the entry Cc1nc(NC(=O)c2ccccc2)sc1-c1csc(NCc2ccco2)n1 : does inhibition equal or exceed -10%?
Not fulfilled

Evaluate COc1ccc2c(CC(=O)Nc3nnc(C4CC4)s3)coc2c1 : inhibition at minimum -10%?
Not fulfilled

Identify whether the reported inhibition of the following molecule is -10% or greater: CC1(C)NC(=O)N(CC(O)CN2CCCC2)C1=O (stereo not given)
Not fulfilled

Please check the record Cc1ccc(CCNC(=O)C2CCCN2S(=O)(=O)c2ccc3c(c2)CCC(=O)N3)cc1 (stereo not given) and state if its inhibition is at or above -10%.
Not fulfilled

Has Cc1cc(C)n(-c2nc3sc4c(c3c3nnc(SCC(N)=O)n23)CC(C)(C)OC4)n1 a recorded inhibition greater than or equal to -10%?
Fulfilled
